System: CYP1A1 mRNA
Assay: CYP1A1 mRNA expression in primary human hepatocytes
Type: cell-based
Settings: human, primary human hepatocytes (culture LH48 as printed)
fold induction at 24 h, 50 µM: recorded values
Reply with just the number.

Some compounds with recorded fold induction at 24 h, 50 µM:
[
  {
    "COMPOUND": "OC[C@H]1O[C@@H](Oc2cc3c(O[C@@H]4O[C@H](CO)[C@@H](O)[C@H](O)[C@H]4O)cc(O)cc3[o+]c2-c2ccc(O)c(O)c2)[C@H](O)[C@@H](O)[C@@H]1O [CYA-3, cyanidin-3,5-di-O-glucoside chloride]",
    "TARGET OF ASSAY": "CYP1A1 mRNA",
    "fold induction at 24 h, 50 µM": 0.13
  },
  {
    "COMPOUND": "OC[C@H]1O[C@@H](Oc2cc3c(O)cc(O)cc3[o+]c2-c2ccc(O)c(O)c2)[C@H](O)[C@@H](O)[C@@H]1O [CYA-1, cyanidin-3-O-glucoside chloride]",
    "TARGET OF ASSAY": "CYP1A1 mRNA",
    "fold induction at 24 h, 50 µM": 0.03
  }
]

Here is another compound to look at.
GET /values?item= COc1cc(-c2[o+]c3cc(O)cc(O)c3cc2O[C@@H]2O[C@H](CO)[C@@H](O)[C@H](O)[C@H]2O)cc(OC)c1O [MAL-1, malvidin-3-O-glucoside chloride] &system= CYP1A1 mRNA returns fold induction at 24 h, 50 µM: 0.29

----------
Tested on: CYP1A1 mRNA in primary human hepatocytes
Test: CYP1A1 mRNA expression in primary human hepatocytes
Format: cell-based
Settings: 10 µM
READOUT TYPE: CYP1A1 mRNA fold induction over the vehicle-treated cells, LH45 (fold)
Report only the number, with the unit fold understood.

Some compounds with recorded CYP1A1 mRNA fold induction over the vehicle-treated cells, LH45:
[
  {
    "COMPOUND": "OC[C@H]1O[C@@H](Oc2cc3c(O)cc(O)cc3[o+]c2-c2ccc(O)c(O)c2)[C@H](O[C@@H]2OC[C@@H](O)[C@H](O)[C@H]2O)[C@@H](O)[C@H]1O.[Cl-] [CYA-9, cyanidin-3-O-lathyroside chloride]",
    "UNIT STRING": "fold",
    "VALUE": 0.32
  },
  {
    "COMPOUND": "OC[C@H]1O[C@@H](O[C@H]2[C@@H](Oc3cc4c(O)cc(O)cc4[o+]c3-c3ccc(O)c(O)c3)O[C@H](CO)[C@@H](O)[C@@H]2O)[C@H](O)[C@@H](O)[C@@H]1O.[Cl-] [CYA-4, cyanidin-3-O-sophoroside chloride]",
    "UNIT STRING": "fold",
    "VALUE": 1.31
  },
  {
    "COMPOUND": "Oc1cc(O)c2cc(O[C@@H]3OC[C@H](O)[C@H](O)[C@H]3O)c(-c3ccc(O)c(O)c3)[o+]c2c1.[Cl-] [CYA-5, cyanidin-3-O-arabinoside chloride]",
    "UNIT STRING": "fold",
    "VALUE": 0.69
  },
  {
    "COMPOUND": "OC[C@H]1O[C@@H](Oc2cc3c(O)cc(O)cc3[o+]c2-c2ccc(O)c(O)c2)[C@H](O[C@@H]2OC[C@@H](O)[C@H](O)[C@H]2O)[C@@H](O)[C@@H]1O.[Cl-] [CYA-8, cyanidin-3-O-sambubioside chloride]",
    "UNIT STRING": "fold",
    "VALUE": 0.26
  }
]

Here is another compound to look at.
Memo: OC[C@H]1O[C@@H](Oc2cc3c(O)cc(O)cc3[o+]c2-c2ccc(O)c(O)c2)[C@H](O)[C@@H](O)[C@H]1O.[Cl-] [CYA-7, cyanidin-3-O-galactoside chloride] , reported CYP1A1 mRNA fold induction over the vehicle-treated cells, LH45: 0.65
